This collection of values is drawn from patent US9682965B2.

As shown below, each of these compounds has a reported inhibition in vivo at 0.3 mg/kg value.
Test system: Diet Induced Obese (DIO) C57BL/6 mice
assay-overview: 10 day DIO mouse model (body weight, food intake, hematology, blood chemistry)
Assay type: in vivo
measurement-parameters: 240 h; DIO mouse, 0.3 mpk sc, once a day for 10 days; read-out: DIO Mouse 10-day weight loss vs vehicle
Counter-ions that a name gives are not always drawn.

Recorded inhibition in vivo at 0.3 mg/kg, per entry:
compound="CO[C@@H]1[C@H](OC(=O)N2CC(CCN3CCCCC3)C2)CC[C@]2(CO2)[C@H]1[C@@]1(C)O[C@@H]1CC=C(C)C [Example 4, formate]" measured_property="inhibition in vivo at 0.3 mg/kg" reported_result=4.1%
compound=CO[C@@H]1[C@H](OC(=O)N2CC[C@@H](CCN3CCOCC3)C2)CC[C@]2(CO2)[C@H]1[C@@]1(C)O[C@@H]1CC=C(C)C measured_property="inhibition in vivo at 0.3 mg/kg" reported_result=12.2%

Would you kindly look at the next entry?
Please give the measured inhibition in vivo at 0.3 mg/kg for this compound: CCN(CC)CCNC(=O)CC1CN(C(=O)O[C@@H]2CC[C@]3(CO3)[C@@H]([C@@]3(C)O[C@@H]3CC=C(C)C)[C@@H]2OC)C1
7.6%
